Recorded boiling point by entry
OBSERVED_PROPERTY: boiling point (°C)

1. CCc1ncc(C)cc1C
198
2. CC[Si](CC)(CC)O[Si](CC)(CC)CC
233
3. CC1CC1(C)C (stereo unspecified)
54
4. N#CSc1ccccc1
232
5. CC1C=CC(=O)O1 (stereo unspecified)
209
6. CCOC(=O)OCC
126
7. CCI
72.5
8. COC(=O)c1ccccc1
199
9. CCCCCCCCCCCCCCCCCC
316
10. Cc1cccc(C)n1
144
11. CC(=O)CF
77

---

Decision: log10 Koc (L/kg) >= 2 yields Met, all other cases yield Not met.

1) CC(=O)c1ccc2ccccc2c1
Met
2) CCNc1nc(NCC)nc(OC)n1
Met
3) N#Cc1cccnc1
Not met
4) Oc1ccc2c(c1)CCC2
Met
5) C#CC(C)(C)NC(=O)c1ccc(C(C)C)cc1
Met
6) CC(C)(C)C(O)C(Oc1ccc(Cl)cc1)n1cncn1 (configuration not stated)
Met
7) CCOP(=S)(NC(C)C)Oc1ccccc1C(=O)OC(C)C (configuration not stated)
Met
8) CNC(=O)Oc1cc(C)c(C)c(C)c1
Met
9) C=CC(N)=O
Not met
10) O=C(O)c1nc(Cl)ccc1Cl
Not met
11) CCCC(=O)Nc1ccccc1
Not met
12) ClC1=C(Cl)C(Cl)(C2(Cl)C(Cl)=C(Cl)C(Cl)=C2Cl)C(Cl)=C1Cl
Met
13) ClC1=C(Cl)[C@]2(Cl)[C@@H]3[C@@H]4C[C@@H]([C@H]5O[C@@H]45)[C@@H]3[C@@]1(Cl)C2(Cl)Cl (single isomer, unassigned)
Met
14) Nc1cccc2ccccc12
Met
15) CCOC(=O)C(O)(c1ccc(Cl)cc1)c1ccc(Cl)cc1
Met
16) ClCC(Cl)Cl
Not met
17) Nc1ccc(Cl)c(Cl)c1
Met
18) CCCCCCOC(=O)c1ccccc1C(=O)OCCCCCC
Met
19) NC(=O)Nc1ccc(F)cc1
Not met
20) c1cc2ccc3ccc4ccc5cccc6c(c1)c2c3c4c56
Met
21) Clc1cc2c(cc1Cl)Oc1cc(Cl)c(Cl)cc1O2
Met
22) Clc1ccc(Cl)c(-c2cc(Cl)ccc2Cl)c1
Met
23) O=[N+]([O-])c1c(Cl)c(Cl)c(Cl)c(Cl)c1Cl
Met
24) CC(C)N(C(=O)CCl)c1ccccc1
Met
25) CC(=O)Nc1cccc(C)c1
Not met
26) c1ccc2nc(-c3ccc4ccccc4n3)ccc2c1
Met
27) CC1(C)CNC(=NN=C(/C=C/c2ccc(C(F)(F)F)cc2)/C=C/c2ccc(C(F)(F)F)cc2)NC1
Met
28) COc1cc(OC)nc(NC(=O)NS(=O)(=O)c2ncccc2C(=O)N(C)C)n1
Not met
29) Clc1cccc(Cl)c1Cl
Met
30) COP(=O)(NC(C)=O)SC (configuration not stated)
Not met
31) c1ccc(Oc2ccccc2)cc1
Met
32) C[N+]1(C)CCCCC1
Met
33) O=C1OC(=O)c2ccccc21
Not met
34) O=c1[nH]cc(N(CCCl)CCCl)c(=O)[nH]1
Not met
35) CCNC(=O)NC(=O)/C(C#N)=N/OC
Met
36) ClCC(Br)CBr (configuration not stated)
Not met

Just for reference, the OPERA property sets (Mansouri et al. 2018) is where these values come from.
